test system: NCI-H1975; assay: relative viability (nuclei count vs DMSO), 5 days (fraction); higher = more cells survive; settings: first compound 0.6325 µM
ASSAY METRIC: relative viability
Give bare numbers.

MOLECULE	relative viability
CN1CCN(CCOc2cc(OC3CCOCC3)c3c(Nc4c(Cl)ccc5c4OCO5)ncnc3c2)CC1 [Saracatinib] + NC(=O)Nc1cc(-c2cccc(F)c2)sc1C(=O)N[C@H]1CCCNC1 [AZD7762] (partner 0.2 µM)	0.659

Report relative viability for each item below.
1. CN1CCN(CCOc2cc(OC3CCOCC3)c3c(Nc4c(Cl)ccc5c4OCO5)ncnc3c2)CC1 [Saracatinib] + C[C@]1(O)C[C@@H](c2nc(-c3ccc4ccc(-c5ccccc5)nc4c3)c3c(N)nccn32)C1 [Linsitinib] (partner 1 µM)
2. Cc1csc(=NC2CCCCC2)n1/N=C/c1ccc(O)c(O)c1O [MIM1] + CC(=O)c1c(C)c2cnc(Nc3ccc(N4CCNCC4)cn3)nc2n(C2CCCC2)c1=O [Palbociclib] (partner 0.5 µM)

OUT:
1. 0.95
2. 0.67

----------
Field: relative viability. Provide a value for each of the compounds that follow.
system: NCI-H2126; experiment: relative viability (nuclei count vs DMSO), 5 days (fraction); higher = more cells survive; settings: first compound 0.006325 µM
Answers are plain numbers.

Report relative viability for each item below.
1. CCNC(=O)c1noc(-c2cc(C(C)C)c(O)cc2O)c1-c1ccc(CN2CCOCC2)cc1 [Luminespib] + NC(=O)Nc1cc(-c2cccc(F)c2)sc1C(=O)N[C@H]1CCCNC1 [AZD7762] (partner 0.2 µM)
2. CCNC(=O)c1noc(-c2cc(C(C)C)c(O)cc2O)c1-c1ccc(CN2CCOCC2)cc1 [Luminespib] + CC(=O)Nc1cccc(-n2c(=O)n(C3CC3)c(=O)c3c(Nc4ccc(I)cc4F)n(C)c(=O)c(C)c32)c1 [Trametinib] (partner 0.02 µM)

OUT:
1: 1.01; 2: 0.608

Report relative viability for each item below.
1. CCNC(=O)c1noc(-c2cc(C(C)C)c(O)cc2O)c1-c1ccc(CN2CCOCC2)cc1 [Luminespib] + Cc1nc(NC(=O)N2CCC[C@H]2C(N)=O)sc1-c1ccnc(C(C)(C)C(F)(F)F)c1 [Alpelisib] (partner 2 µM)
2. CCNC(=O)c1noc(-c2cc(C(C)C)c(O)cc2O)c1-c1ccc(CN2CCOCC2)cc1 [Luminespib] + CC(C)C[C@H](NC(=O)[C@H](Cc1ccccc1)NC(=O)c1cnccn1)B(O)O [Bortezomib] (partner 0.002 µM)
3. CCNC(=O)c1noc(-c2cc(C(C)C)c(O)cc2O)c1-c1ccc(CN2CCOCC2)cc1 [Luminespib] + C[C@]1(O)C[C@@H](c2nc(-c3ccc4ccc(-c5ccccc5)nc4c3)c3c(N)nccn32)C1 [Linsitinib] (partner 1 µM)
4. CCNC(=O)c1noc(-c2cc(C(C)C)c(O)cc2O)c1-c1ccc(CN2CCOCC2)cc1 [Luminespib] + Nc1nc2[nH]cc(CCc3ccc(C(=O)N[C@@H](CCC(=O)O)C(=O)O)cc3)c2c(=O)[nH]1 [Pemetrexed] (partner 0.2 µM)

OUT:
0.727
1.03
0.652
0.626

----------
tested on: HCC-78; assay: relative viability (nuclei count vs DMSO), 5 days (fraction); higher = more cells survive; settings: first compound 8 µM
ASSAY METRIC: relative viability
One number for each entry.

Consider the reported relative viability for these molecules:
MOLECULE	MEASUREMENT
Nc1cccc2c1CN(C1CCC(=O)NC1=O)C2=O (stereo not drawn) [Lenalidomide] + CC(=O)c1c(C)c2cnc(Nc3ccc(N4CCNCC4)cn3)nc2n(C2CCCC2)c1=O [Palbociclib] (partner 0.5 µM)	0.47
Nc1cccc2c1CN(C1CCC(=O)NC1=O)C2=O (stereo not drawn) [Lenalidomide] + N=C(N)NC(=N)NCCc1ccccc1 [Phenformin] (partner 250 µM)	0.448

As a next step, examine the molecule that follows.
IN: Param readout= relative viability; system= HCC-78; entry= Nc1cccc2c1CN(C1CCC(=O)NC1=O)C2=O (stereo not drawn) [Lenalidomide] + Cc1cc(Nc2cc(N3CCN(C)CC3)nc(Sc3ccc(NC(=O)C4CC4)cc3)n2)n[nH]1 [Tozasertib] (partner 0.1 µM) ; returns value.
OUT: 0.49

----------
system: NCI-H1395; experiment: relative viability (nuclei count vs DMSO), 5 days (fraction); higher = more cells survive; settings: first compound 0.2 µM
Field: relative viability. Provide a value for each of the molecules that follow.
Give bare numbers.

Consider the reported relative viability for these molecules:
MOLECULE	relative viability
CN1CCN(CCOc2cc(OC3CCOCC3)c3c(Nc4c(Cl)ccc5c4OCO5)ncnc3c2)CC1 [Saracatinib] + Nc1nc2[nH]cc(CCc3ccc(C(=O)N[C@@H](CCC(=O)O)C(=O)O)cc3)c2c(=O)[nH]1 [Pemetrexed] (partner 0.2 µM)	0.769
CN1CCN(CCOc2cc(OC3CCOCC3)c3c(Nc4c(Cl)ccc5c4OCO5)ncnc3c2)CC1 [Saracatinib] + CS(=O)(=O)CCNCc1ccc(-c2ccc3ncnc(Nc4ccc(OCc5cccc(F)c5)c(Cl)c4)c3c2)o1 [Lapatinib] (partner 2 µM)	0.921
CCNC(=O)c1noc(-c2cc(C(C)C)c(O)cc2O)c1-c1ccc(CN2CCOCC2)cc1 [Luminespib] + COc1cccc2cc(-c3nc([C@H]4CC[C@H](C(=O)O)CC4)n4ncnc(N)c34)[nH]c12 [OSI-027] (partner 0.5 µM)	0.321

Report relative viability for each item below.
1. CCNC(=O)c1noc(-c2cc(C(C)C)c(O)cc2O)c1-c1ccc(CN2CCOCC2)cc1 [Luminespib] + COc1cc2c(Oc3ccc(NC(=O)C4(C(=O)Nc5ccc(F)cc5)CC4)cc3F)ccnc2cc1OCCCN1CCOCC1 [Foretinib] (partner 0.25 µM)
2. CN1CCN(CCOc2cc(OC3CCOCC3)c3c(Nc4c(Cl)ccc5c4OCO5)ncnc3c2)CC1 [Saracatinib] + O=C(CCCCCCC(=O)Nc1ccccc1)NO [Vorinostat] (partner 1 µM)
3. CCNC(=O)c1noc(-c2cc(C(C)C)c(O)cc2O)c1-c1ccc(CN2CCOCC2)cc1 [Luminespib] + O=C(c1cc(Cc2n[nH]c(=O)c3ccccc23)ccc1F)N1CCN(C(=O)C2CC2)CC1 [Olaparib] (partner 8 µM)
4. Cc1csc(=NC2CCCCC2)n1/N=C/c1ccc(O)c(O)c1O [MIM1] + Cc1cc(Nc2cc(N3CCN(C)CC3)nc(Sc3ccc(NC(=O)C4CC4)cc3)n2)n[nH]1 [Tozasertib] (partner 0.1 µM)

OUT:
1: 0.345; 2: 0.632; 3: 0.383; 4: 0.742

----------
test system: LK-2; test: relative viability (nuclei count vs DMSO), 5 days (fraction); higher = more cells survive; conditions: first compound 2.53 µM
ASSAY METRIC: relative viability

Report relative viability for each item below.
1. Nc1cccc2c1CN(C1CCC(=O)NC1=O)C2=O (centres undefined) [Lenalidomide] + CC1(C)CCC(c2ccc(Cl)cc2)=C(CN2CCN(c3ccc(C(=O)NS(=O)(=O)c4ccc(N[C@H](CCN5CCOCC5)CSc5ccccc5)c(S(=O)(=O)C(F)(F)F)c4)cc3)CC2)C1 [Navitoclax] (partner 0.5 µM)
2. Nc1cccc2c1CN(C1CCC(=O)NC1=O)C2=O (centres undefined) [Lenalidomide] + Cc1nc(NC(=O)N2CCC[C@H]2C(N)=O)sc1-c1ccnc(C(C)(C)C(F)(F)F)c1 [Alpelisib] (partner 2 µM)

OUT:
1. 0.959
2. 1.09

Report relative viability for each item below.
1. Nc1cccc2c1CN(C1CCC(=O)NC1=O)C2=O (centres undefined) [Lenalidomide] + Cc1nc(Nc2ncc(C(=O)Nc3c(C)cccc3Cl)s2)cc(N2CCN(CCO)CC2)n1 [Dasatinib] (partner 0.075 µM)
2. Nc1cccc2c1CN(C1CCC(=O)NC1=O)C2=O (centres undefined) [Lenalidomide] + N=C(N)NC(=N)NCCc1ccccc1 [Phenformin] (partner 250 µM)

OUT:
1. 0.249
2. 0.656

----------
tested on: NCI-H1395; assay: relative viability (nuclei count vs DMSO), 5 days (fraction); higher = more cells survive; conditions: first compound 2 µM
Entries whose relative viability is below 0.6 take rule met; entries at or above 0.6 take rule not met.

Sample answers from the record:
COMPOUND	CLASS
CN1CCN(CCOc2cc(OC3CCOCC3)c3c(Nc4c(Cl)ccc5c4OCO5)ncnc3c2)CC1 [Saracatinib] + CC(=O)c1c(C)c2cnc(Nc3ccc(N4CCNCC4)cn3)nc2n(C2CCCC2)c1=O [Palbociclib] (partner 0.5 µM)	rule met
CN1CCN(CCOc2cc(OC3CCOCC3)c3c(Nc4c(Cl)ccc5c4OCO5)ncnc3c2)CC1 [Saracatinib] + Cc1cc(Nc2cc(N3CCN(C)CC3)nc(Sc3ccc(NC(=O)C4CC4)cc3)n2)n[nH]1 [Tozasertib] (partner 0.1 µM)	rule not met

IN: Identify whether the compound Cc1csc(=NC2CCCCC2)n1/N=C/c1ccc(O)c(O)c1O [MIM1] + Nc1ncn([C@H]2C[C@H](O)[C@@H](CO)O2)c(=O)n1 [Decitabine] (partner 2 µM) records relative viability below 0.6.
OUT: rule not met

IN: Input CN1CCN(CCOc2cc(OC3CCOCC3)c3c(Nc4c(Cl)ccc5c4OCO5)ncnc3c2)CC1 [Saracatinib] + O=C(CCCCCCC(=O)Nc1ccccc1)NO [Vorinostat] (partner 1 µM)
OUT: rule met

IN: Input CN1CCN(CCOc2cc(OC3CCOCC3)c3c(Nc4c(Cl)ccc5c4OCO5)ncnc3c2)CC1 [Saracatinib] + CC1(C)CCC(c2ccc(Cl)cc2)=C(CN2CCN(c3ccc(C(=O)NS(=O)(=O)c4ccc(N[C@H](CCN5CCOCC5)CSc5ccccc5)c(S(=O)(=O)C(F)(F)F)c4)cc3)CC2)C1 [Navitoclax] (partner 0.5 µM)
OUT: rule not met

IN: Input Cc1csc(=NC2CCCCC2)n1/N=C/c1ccc(O)c(O)c1O [MIM1] + CS(=O)(=O)CCNCc1ccc(-c2ccc3ncnc(Nc4ccc(OCc5cccc(F)c5)c(Cl)c4)c3c2)o1 [Lapatinib] (partner 2 µM)
OUT: rule not met

IN: Input Cc1csc(=NC2CCCCC2)n1/N=C/c1ccc(O)c(O)c1O [MIM1] + N=C(N)NC(=N)NCCc1ccccc1 [Phenformin] (partner 250 µM)
OUT: rule met

All values here come from the supplement of paper PMC10307832.
